Measured values drawn from ChEMBL document CHEMBL1287679 for this set.

Assign selectivity ratio to each entry below.
assay_notes: Therapeutic index, concentration required to achieve 100% hemolysis in erythrocyte to MIC for Staphylococcus aureus ATCC 29213
particulars: erythrocytes; read-out: Ratio

Please report the measured selectivity ratio for "CC(C)C[C@@H]1NC(=O)[C@H](CCCN)NC(=O)[C@H](C(C)C)NC(=O)[C@H](CCCN)NC(=O)[C@@H]2CCCN2C(=O)[C@@H](Cc2ccccc2)NC(=O)[C@H](CCCN)NC(=O)[C@H](CC(C)C)NC(=O)[C@H](CCCN)NC(=O)[C@H](C23CC4CC(CC(C4)C2)C3)NC(=O)[C@H](CCCN)NC(=O)[C@@H]2CCCN2C(=O)[C@@H](Cc2ccccc2)NC(=O)[C@H](CCCN)NC1=O" 7.8

Please report the measured selectivity ratio for "CC(C)C[C@@H]1NC(=O)[C@H](CCCN)NC(=O)[C@H](C(C)C)NC(=O)[C@H](CCCN)NC(=O)[C@@H]2CCCN2C(=O)[C@@H](Cc2ccccc2)NC(=O)[C@H](CCCN)NC(=O)[C@H](CC23CC4CC(CC(C4)C2)C3)NC(=O)[C@H](CCCN)NC(=O)[C@H](C23CC4CC(CC(C4)C2)C3)NC(=O)[C@H](CCCN)NC(=O)[C@@H]2CCCN2C(=O)[C@@H](Cc2ccccc2)NC(=O)[C@H](CCCN)NC1=O" 3.9

Please report the measured selectivity ratio for "CC(C)C[C@@H]1NC(=O)[C@H](CCCN)NC(=O)[C@H](C23CC4CC(CC(C4)C2)C3)NC(=O)[C@H](CCCN)NC(=O)[C@@H]2CCCN2C(=O)[C@@H](Cc2ccccc2)NC(=O)[C@H](CCCN)NC(=O)[C@H](CC23CC4CC(CC(C4)C2)C3)NC(=O)[C@H](CCCN)NC(=O)[C@H](C(C)C)NC(=O)[C@H](CCCN)NC(=O)[C@@H]2CCCN2C(=O)[C@@H](Cc2ccccc2)NC(=O)[C@H](CCCN)NC1=O" 3.9

* * *

assay_notes: Therapeutic index, concentration required to achieve 100% hemolysis in erythrocyte to MIC for Escherichia coli ATCC 25922
particulars: erythrocytes
measurement_kind: selectivity ratio
Please state the value as a number alone, without comment.

Please report the measured selectivity ratio for "CC(C)[C@@H]1NC(=O)[C@H](CCCN)NC(=O)[C@@H]2CCCN2C(=O)[C@@H](Cc2ccccc2)NC(=O)[C@H](CCCN)NC(=O)[C@H](CC23CC4CC(CC(C4)C2)C3)NC(=O)[C@H](CCCN)NC(=O)[C@H](C(C)C)NC(=O)[C@H](CCCN)NC(=O)[C@@H]2CCCN2C(=O)[C@@H](Cc2ccccc2)NC(=O)[C@H](CCCN)NC(=O)[C@H](CC23CC4CC(CC(C4)C2)C3)NC(=O)[C@H](CCCN)NC1=O" 3.9

Please report the measured selectivity ratio for "CC(C)C[C@@H]1NC(=O)[C@H](CCCN)NC(=O)[C@H](C(C)C)NC(=O)[C@H](CCCN)NC(=O)[C@@H]2CCCN2C(=O)[C@@H](Cc2ccccc2)NC(=O)[C@H](CCCN)NC(=O)[C@H](CC(C)C)NC(=O)[C@H](CCCN)NC(=O)[C@H](C23CC4CC(CC(C4)C2)C3)NC(=O)[C@H](CCCN)NC(=O)[C@@H]2CCCN2C(=O)[C@@H](Cc2ccccc2)NC(=O)[C@H](CCCN)NC1=O" 15.6

Please report the measured selectivity ratio for "NCCC[C@@H]1NC(=O)[C@H](CC23CC4CC(CC(C4)C2)C3)NC(=O)[C@H](CCCN)NC(=O)[C@H](C23CC4CC(CC(C4)C2)C3)NC(=O)[C@H](CCCN)NC(=O)[C@@H]2CCCN2C(=O)[C@@H](Cc2ccccc2)NC(=O)[C@H](CCCN)NC(=O)[C@H](CC23CC4CC(CC(C4)C2)C3)NC(=O)[C@H](CCCN)NC(=O)[C@H](C23CC4CC(CC(C4)C2)C3)NC(=O)[C@H](CCCN)NC(=O)[C@@H]2CCCN2C(=O)[C@@H](Cc2ccccc2)NC1=O" 0.12
